The measurements presented in this section are drawn from the supplement of paper PMC9170038.

System: K4 kissing-loop RNA reporter
experiment-summary: apparent KD of K4 kissing-loop reporter; higher = weaker reporter binding
cond: Eterna round: R107; input ligand: FMN 200 uM
quantity: apparent KD of K4 kissing-loop reporter (µM)
Please state the figure in µM; there is no need to write the unit.

Example entries and their recorded answers appear below.
GAGCCAGAGGUUGCUGCGGGUUCCAGAGAUACCAGCCGUAUUGAAGGCCCUUGGCAGCUCGAGUGAUGUUCGAGCCGCCUCUGAC [Isquleorve] = 0.119
UAUAGAAACGUCCUAUCAGUAAAAUGGGAAGGAGCGAGGAAGGACUCAGGUAGGUCGCCCAAUAACCUUAGUGAUGUUAAGGAAA [Version 2] = 0.155
UGACUGGAUGGAAGGAGCGCUAAACUCCUAGUGAUGUUAGGGACACGAGACAAAGUCUCGAAGCAGGUAGGUCGCCAUCUAGUCU [FiskerMod 13 - Jieux - Same State - Arginine B] = 0.219

Pending sequence:
The reported apparent KD of K4 kissing-loop reporter of the sequence CGAACCUCCAAAGGAUAUCUCGUUUAGUGAUGUUUUGCGUAGUAUCAGGAUAGAAUAUUGAUUCAGAGAGAAGGUUGACGUUGGU [theeternabot_exclusion_KL_FMN_B_14] was 0.733

----------
Test system: K4 kissing-loop RNA reporter;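 also: bound reporter read as fluorescence of individual clusters on recovered sequencing chips by microscopy, with normalized cluster intensities fitted with a binding model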
experiment-summary: apparent KD of K4 kissing-loop reporter; higher = weaker reporter binding
cond: Eterna round: R107; input ligand: theophylline 20 uM
Criterion: apparent KD of K4 kissing-loop reporter meeting or surpassing 200 nM. Met: t. Not met: f.

Solved cases (3 shown):
GGUAGCUAGGCAGGAUAUAGCUAGUGGAGUGAUGUUCCACCAUACACGAGUGAUGUUCGUAACCUGCUAGAAGGGCCUAGCUACC = f
UGAUACCAGACUGAUACCAGCAGUGAUGUUGCUGAUAAGGGUAGAGUCAAAGACUCUACCUGCCCUUGGCAGCAGUCUGGUAUCU [TheoBX 14 #SwitchBubble #StaticStem] = f
UAUAUAGUGACGGCCGCCACUAUAUUAAUGUUUUUGUUAGAGUGAUGUUUUGUUUUUUAAUUUUAUAGGACCGGGUUAUAUGUUA [xnxmullin] = t

## Task Item GGGAAGGGACACAAGGAGGAACGAAGGGAAGGAGCGCCGGAGGAGGCAGGUAGGUCGCCCAACCAGUGAUGUUGGAAUUUAAUCC [Default title] with apparent KD of K4 kissing-loop reporter of 200 nM or above?
## Result f

## Task Item AGAAGGAGACUUGCAACGACUCCUUCAGACUAGGAUAUCAGGAAACUGAGAAGGAGUCUACUUGCAGUGAUGUUGCAAGAAUAAU [[F]''-[K]'-[F]'-[F1]-[F2]-[K1]-[K2]_Design3] with apparent KD of K4 kissing-loop reporter of 200 nM or above?
## Result f

## Task Item GGGAGUGAUGUUCCCGCGUUGACGGUCCUCCGAGGACCGGUACGGCCGCCACUCGAAACCCAGUGAUGUUGGGACUCACCGUACU [Exclusion Tryptophan A GF 11] with apparent KD of K4 kissing-loop reporter of 200 nM or above?
## Result t

----------
System: MS2 coat protein
experiment-summary: apparent KD of MS2 coat protein; designed switch direction (-1 OFF switch, 1 ON switch): 1; higher = weaker reporter binding
cond: Eterna round: R95; input ligand: microRNA oligo, concentration not stated
Entries get a class label from measured apparent KD of MS2 coat protein. See ranges: lower band = under 30 nM, central band = from 30 nM up to 60 nM, upper band = 60 nM and over

CAGCGCUGUCGAGAGGAUAUGCGGUGAUGGACAUGAGGAUCACCCAUGUUAGCGACAGCAUUACGGUAGAAGGCUUCACAGCUGC [Soteed Omei mod 15] (puzzle: Same State 2) = central band
UUUGGGUGGCUGGAGGAUAUUCGAGUGGUUACAUGAGGAUCACCCAUGUGUCGCGCGGUACACGAGGAGAAGGCUGGCGGCCGUU (puzzle: Same State 2) = central band
UAGUGCUGUUGAGAGGAUAUGCGGCGACGGACAUGAGGAUCACCCAUGUUAGCGACAGCGUUGCGGCAGAAGGCUCUGCCCGCUA [Soteed Omei mod 52] (puzzle: Same State 2) = lower band
UACAAUCUAUCUGAGGAUAUCAUGAAUUAUACAUGAGGAUCACCCAUGUGCAGGAAAACUGCAUAUGAGAAGGCAGAUAGAUUGU [salish99_ss2_r3_062] (puzzle: Same State 2) = central band
GUUAAACAUGAGGAUCACCCAUGUCAAUGUAGUCGAGGAUAUGGGUAGCUAUGAGGCGUACUAGAAGGCGAGGAGU [Mat - Same State 1 - Mod of JL - D16] (puzzle: Same State 1) = central band

## Task Which class is correct for the following sequence? AAAAUACAUGAGGAUCACCCAUGUAGAAACUACACAGGAUAUCGGACGGCUAUAACCGAACGAGAAGGGUGAACCC [Onorvea] (puzzle: Same State 1)
## Result upper band

## Task Which class is correct for the following sequence? GGAGAGAGAGCGCAGGAUAUUUAAGGAGAAACAUGAGGAUCACCCAUGUGAGAGAGAGAGGAGAGAGAGAAGGGUGAGAGAGAGG [Altered State 2-16 - Jieux - Same State 2] (puzzle: Same State 2)
## Result lower band

----------
The sequences listed here are annotated with their apparent KD of MS2 coat protein.
Tested on: MS2 coat protein
experiment-summary: apparent KD of MS2 coat protein; designed switch direction (-1 OFF switch, 1 ON switch): -1; higher = weaker reporter binding
cond: input ligand: FMN 200 uM
Please state the figure in nM; there is no need to write the unit.

Example entries and their recorded answers appear below.
GGGAAGAACCAACAAGCAAACAUGAGGAUCACCCAUGUAGUAAGAGAAAUUGAGGUGAUUCAGAGAGCUCGACUUAU [AK-miRNA-r3-7.1] (Eterna round: R97, puzzle: Sensor, turn-off variant 1) = 367
GGUGUGCUAGGAUAUGCUUUGGGCUCGCUUUCCUUCGUUUUACUUGAGGAUCACCCAAGUAGAAGGAGCUUGCC [salish99_ex2_r4_037] (Eterna round: R97, puzzle: Exclusion 2) = 13.3
AAAUCAGAGGAGGAUAUGGUAUAGGAAAUGGUGCCAGAAGGUUUCACAUGAGGAUCACCCAUGUCAAAUAGUGA [EX6 #62] (Eterna round: R97, puzzle: Exclusion 6) = 49.2
ACAAACAGCUGAGGAUAUCACGAGCAAGGCCAGUGAGAAGGUAGCUCAAACAUGAGGAUCACCCAUGUUAAACUUCCUCAUGCG [Raisorar] (Eterna round: R96, puzzle: Exclusion NG 1) = 13.7
AUAUAGCGAGGAUAUACAUGAGGAUCACCCAUGUGGUAGUAGAUACAGUAGAGAUAGAGUAGAAGGCGCUAUGA [EX3 #7] (Eterna round: R97, puzzle: Exclusion 3) = 416
AUUAGUAAUAAGGAUAUCACUAGCCUCGGCUAGUGAGAAGGUAUUACAUGAGGAUCACCCAUGUGAUUAAUUAA [E6/5-A2] (Eterna round: R97, puzzle: Exclusion 6) = 463
UAACAAAUGGUCAGGAUAUCACUCCCGGCCCAGAGUGAGAAGGGACAUGAGGAUCACCCAUGUAUGAUUCUCAC [jl-ex4-4.54 ViennaUCT mod] (Eterna round: R97, puzzle: Brourd's mod of Exclusion 4) = 19.7
AACAAAAGCGUAGGAUAUGACUGGGCUCAUGCCUAACAUAACUACAAACAUGAGGAUCACCCAUGUCAGAAGGACGAAUAAAAU [Isesbequti] (Eterna round: R96, puzzle: Exclusion NG 2) = 87.1
GUUGUGUGAGGAUAUGCCUGGCCGUGAGGCCGGAUUGGGUGGCAGAAGGUACAUGAGGAUCACCCAUGUACGGG [salish99_ex4_4_007] (Eterna round: R97, puzzle: Exclusion 4) = 45.4

Pending sequence:
The reported apparent KD of MS2 coat protein of the sequence AAAAUUGUAGGAUAUUAGGCAGACAACAUGAGGAUCACCCAUGUCCGUGAUCUUAGGCACUGAGAAGGAUAAGCCU [Eternabot (Original) Solution 23] (Eterna round: R97, puzzle: Exclusion 5) was 147

----------
The sequences listed here are annotated with their apparent KD of MS2 coat protein.
Tested on: MS2 coat protein
experiment-summary: apparent KD of MS2 coat protein; higher = weaker reporter binding
cond: Eterna round: R107; input ligand: tryptophan 2.4 mM
Please state the figure in nM; there is no need to write the unit.

AACAUGAGGAUCACCCAUGUGUCCUCGAAACGAGGACCGGUACGGCCGCCACUCGAGCUAUGUUGACGAAAAGUCAGCAUAGCAA [Mat - Exclusion - Trytophan A - D13] = 1080

The reported apparent KD of MS2 coat protein of the sequence AGAUUACAUGUUAUAAUACGGUAUACUGAUACCAGUGUUUCUAUUCACCCUUGGCAGCAGCAACAUGAGGAUCACCCAUGUAUUA [JR_SSTheophyA_Sub017] was 17.7

The reported apparent KD of MS2 coat protein of the sequence GUAUAUAUGCGAAGGAGCGGGAAAUAUAUAUAUAUAAUCCUAACAUGAGGAUCACCCAUGUCCCAGGUAGGUCGCGCAUAUAUAU [12.B] was 76.1
